Reference source: patent US20140356358A1

- measured_on: T1, human neonatal Fc receptor (hFcRn) (human, UniProt P55899 24-290; P61769 21-119)
- T1 construct: Biotinylated in the ELISA, Octet and yeast assays; also called human FcRn; huFcRn
- method_summary: phage ELISA pH 7.4;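 further: higher score means stronger binding and above about 3 to 5 exceeds background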
Overview of reported ELISA score across a group of binders:
The answer should be a number; do not append a unit.

Study these solved cases before continuing.
binder	readout_number
L5 isolate with insertion SEQ ID NO: 434 (other) EPKSCDKTHTCPPCPAPELLGGPSVFLFPPKPKDTLMISRTPEVTCVVVDVSHEDPEVKFNWYVDGVEVHNAKTKPREEQYNSTYRVVSVLTVLHQDWLNGKEYKCKVSNKALPAPIEKTISKAKGQPREPQVYTLPPSRDELTKNQVSLTCLVKGFYPSDIAVEWESNGGCMPYEMHCGGGQPENNYKTTPPVLDSDGSFFLYSKLTVDKSRWQQGNVFSCSVMHEALHNHYTQKSLSLSPGK	0.4
L5 isolate with insertion SEQ ID NO: 429 (other) EPKSCDKTHTCPPCPAPELLGGPSVFLFPPKPKDTLMISRTPEVTCVVVDVSHEDPEVKFNWYVDGVEVHNAKTKPREEQYNSTYRVVSVLTVLHQDWLNGKEYKCKVSNKALPAPIEKTISKAKGQPREPQVYTLPPSRDELTKNQVSLTCLVKGFYPSDIAVEWESNGGCPPWPERCGGGQPENNYKTTPPVLDSDGSFFLYSKLTVDKSRWQQGNVFSCSVMHEALHNHYTQKSLSLSPGK	0.3
L5 isolate with insertion SEQ ID NO: 407 (other) EPKSCDKTHTCPPCPAPELLGGPSVFLFPPKPKDTLMISRTPEVTCVVVDVSHEDPEVKFNWYVDGVEVHNAKTKPREEQYNSTYRVVSVLTVLHQDWLNGKEYKCKVSNKALPAPIEKTISKAKGQPREPQVYTLPPSRDELTKNQVSLTCLVKGFYPSDIAVEWESNGGCMVPFSMCGGGQPENNYKTTPPVLDSDGSFFLYSKLTVDKSRWQQGNVFSCSVMHEALHNHYTQKSLSLSPGK	0.6
L6B isolate with insertion SEQ ID NO: 472 (other) EPKSCDKTHTCPPCPAPELLGGPSVFLFPPKPKDTLMISRTPEVTCVVVDVSHEDPEVKFNWYVDGVEVHNAKTKPREEQYNSTYRVVSVLTVLHQDWLNGKEYKCKVSNKALPAPIEKTISKAKGQPREPQVYTLPPSRDELGGCPNDTVRDACGGTKNQVSLTCLVKGFYPSDIAVEWESNGQPENNYKTTPPVLDSDGSFFLYSKLTVDKSRWQQGNVFSCSVMHEALHNHYTQKSLSLSPGK	0.4

Exam item: Any idea what ELISA score was measured for L6B isolate with insertion SEQ ID NO: 427 (other) EPKSCDKTHTCPPCPAPELLGGPSVFLFPPKPKDTLMISRTPEVTCVVVDVSHEDPEVKFNWYVDGVEVHNAKTKPREEQYNSTYRVVSVLTVLHQDWLNGKEYKCKVSNKALPAPIEKTISKAKGQPREPQVYTLPPSRDELGGCVQHKMGVVCGGTKNQVSLTCLVKGFYPSDIAVEWESNGQPENNYKTTPPVLDSDGSFFLYSKLTVDKSRWQQGNVFSCSVMHEALHNHYTQKSLSLSPGK ?
Marked response: 0.8
